Numbers sourced from paper PMC8388771.

Entries and their MIC values follow.
System: E. faecalis ATCC 29212
Assay: Primary MIC assay, E. faecalis ATCC 29212
Assay type: cell-based, Enterococcus faecalis
Conditions: Enterococcus faecalis, ATCC29212; Table 1; read-out: MIC E. faecalis ATCC 29212
Protocol: The N-arytriazole and N-naphthyltriazole peptidomimetics were subjected to antimicrobial screening. […] Vancomycin, colistin, fluconazole, and tamoxifen were used as positive controls (see Table 1 for details). Primary screening (Gram-positive bacteria). Primary MIC assays were performed as described by the Clinical and Laboratory Standards Institute for aerobic and anaerobic bacteria. MIC values for vancomycin were within acceptable QC ranges.

# count of solved cases: 5
| smiles notation | tested target | quantity | result value |
| --- | --- | --- | --- |
| CC(C)CCc1cnnn1-c1ccccc1OCC(=O)N[C@H](CCCCN)C(=O)N[C@H](CCCNC(=N)N)Cn1cc(Cc2ccccc2)nn1.Cl.Cl | E. faecalis ATCC 29212 | MIC | 32 µg/mL |
| CC(C)CCc1cn(-c2ccccc2OCC(=O)N[C@H](CCCNC(=N)N)Cn2cc(-c3ccc(F)cc3)nn2)nn1.Cl | E. faecalis ATCC 29212 | MIC | 32 µg/mL |
| CC(C)CCc1cn(-c2c(OCC(=O)N[C@H](CCCCN)C(=O)N[C@H](CCCNC(=N)N)Cn3cc(C4CCCCC4)nn3)ccc3ccccc23)nn1.Cl.Cl | E. faecalis ATCC 29212 | MIC | 32 µg/mL |
| CC(C)CCc1cn(-c2ccccc2OCC(=O)N[C@H](CCCNC(=N)N)Cn2cc(C3CCCC3)nn2)nn1.Cl | E. faecalis ATCC 29212 | MIC | 32 µg/mL |
| CC(C)CCc1cn(-c2c(OCC(=O)N[C@H](CCCNC(=N)N)Cn3cc(CC4CCCCC4)nn3)ccc3ccccc23)nn1.Cl | E. faecalis ATCC 29212 | MIC | 8 µg/mL |

Endpoint output: MIC of CC(C)CCc1cn(-c2c(OCC(=O)N[C@H](CCCNC(=N)N)Cn3cc(C4CCCCC4)nn3)ccc3ccccc23)nn1 . Value? 16 µg/mL

Any idea what MIC was measured for CC(C)CCc1cnnn1-c1c(OCC(=O)N[C@H](CCCNC(=N)N)Cn2cc(Cc3ccccc3)nn2)ccc2ccccc12.Cl ? 16 µg/mL

Return reported MIC; argument: CC(C)CCc1cn(-c2ccccc2OCC(=O)N[C@H](CCCCN)C(=O)N[C@H](CCCNC(=N)N)Cn2cc(Cc3ccccc3)nn2)nn1 64 µg/mL

Could you tell me which MIC is on file for CC(C)CCc1cnnn1-c1c(OCC(=O)N[C@H](CCCNC(=N)N)Cn2cc(C3CCCCC3)nn2)ccc2ccccc12 ? 8 µg/mL

MIC lookup needed for CC(C)CCc1cnnn1-c1ccccc1OCC(=O)N[C@H](CCCCN)C(=O)N[C@H](CCCNC(=N)N)Cn1cc(CC2CCCCC2)nn1 , thanks. > 128 µg/mL

Suppose we examine the molecule CC(C)CCc1cnnn1-c1ccccc1OCC(=O)N[C@H](CCCNC(=N)N)Cn1cc(C2CCCCC2)nn1 ; what MIC value has been reported? 32 µg/mL

Recorded MIC of CC(C)CCc1cnnn1-c1c(OCC(=O)N[C@H](CCCCN)C(=O)N[C@H](CCCNC(=N)N)Cn2cc(C3CCCCC3)nn2)ccc2ccccc12.Cl.Cl , please. 64 µg/mL
